pIC50 by entry:
biological target: UniProt Q9NR97; assay: TLR8 inhibition reporter assay (HEK-Blue SEAP); conditions: HEK-Blue cells overexpressing human TLR8, stimulated with R848 15.9 μM, 22 hour incubation
pIC50: −log10 of the molar value.

molecule	pIC50
COc1ccc(-c2[nH]c3ccc(OCC(=O)NCC(C)(C)O)cc3c2C(C)C)cc1OC [Example 150]	6.02
Cc1cc(-c2[nH]c3ccc(OCCN4CCCC4)cc3c2C(C)C)cn2ncnc12 [Example 2]	8.80
Cc1cc(-c2[nH]c3ccc(OC4CCN(CC(C)O)CC4)cc3c2C(C)C)cc(C)n1 (stereo not drawn) [Example 69]	8.62
CNC(=O)CN1CCC(Oc2ccc3[nH]c(-c4cn(C)c(=O)c(C)c4C)c(C(C)C)c3c2)CC1 [Example 115]	8.07
Cc1cc(-c2[nH]c3ccc(OCC4CCN(C(=O)CN(C)C)CC4)cc3c2C(C)C)cn(C)c1=O [Example 97]	8.25
CCc1c(-c2ccnc(C)c2)[nH]c2ccc(OC3CCN(C)CC3)cc12 [Example 189]	8.19

###

IC50 by entry:
target: human TLR7 (Homo sapiens); assay: TLR7 inhibition reporter assay (HEK-Blue SEAP); details: HEK-Blue cells overexpressing human TLR7, stimulated with gardiquimod 7.5 μM, 22 hour incubation

compound	targetOrSystem	resultUnit	IC50
COc1ccc(-c2[nH]c3ccc(OCC(=O)N[C@H]4CCNC4)cc3c2C(C)C)cc1OC [Example 134]	human TLR7 (Homo sapiens)	nM	98
COc1ccc(-c2[nH]c3ccc(OCC(=O)N4CCC[C@]5(CCCC[C@@H]5N)C4)cc3c2C(C)C)cc1OC [Example 123]	human TLR7 (Homo sapiens)	nM	164
Cc1cc(-c2[nH]c3ccc(OCC(=O)N4CC5CN(C)CC5C4)cc3c2C(C)C)ccn1 (stereo not drawn) [Example 149]	human TLR7 (Homo sapiens)	nM	119

###

biological target: human TLR8 (Homo sapiens, UniProt Q9NR97); test: TLR8 inhibition reporter assay (HEK-Blue SEAP); settings: HEK-Blue cells overexpressing human TLR8, stimulated with R848 15.9 μM, 22 hour incubation
Sequence (Q9NR97 27-1041): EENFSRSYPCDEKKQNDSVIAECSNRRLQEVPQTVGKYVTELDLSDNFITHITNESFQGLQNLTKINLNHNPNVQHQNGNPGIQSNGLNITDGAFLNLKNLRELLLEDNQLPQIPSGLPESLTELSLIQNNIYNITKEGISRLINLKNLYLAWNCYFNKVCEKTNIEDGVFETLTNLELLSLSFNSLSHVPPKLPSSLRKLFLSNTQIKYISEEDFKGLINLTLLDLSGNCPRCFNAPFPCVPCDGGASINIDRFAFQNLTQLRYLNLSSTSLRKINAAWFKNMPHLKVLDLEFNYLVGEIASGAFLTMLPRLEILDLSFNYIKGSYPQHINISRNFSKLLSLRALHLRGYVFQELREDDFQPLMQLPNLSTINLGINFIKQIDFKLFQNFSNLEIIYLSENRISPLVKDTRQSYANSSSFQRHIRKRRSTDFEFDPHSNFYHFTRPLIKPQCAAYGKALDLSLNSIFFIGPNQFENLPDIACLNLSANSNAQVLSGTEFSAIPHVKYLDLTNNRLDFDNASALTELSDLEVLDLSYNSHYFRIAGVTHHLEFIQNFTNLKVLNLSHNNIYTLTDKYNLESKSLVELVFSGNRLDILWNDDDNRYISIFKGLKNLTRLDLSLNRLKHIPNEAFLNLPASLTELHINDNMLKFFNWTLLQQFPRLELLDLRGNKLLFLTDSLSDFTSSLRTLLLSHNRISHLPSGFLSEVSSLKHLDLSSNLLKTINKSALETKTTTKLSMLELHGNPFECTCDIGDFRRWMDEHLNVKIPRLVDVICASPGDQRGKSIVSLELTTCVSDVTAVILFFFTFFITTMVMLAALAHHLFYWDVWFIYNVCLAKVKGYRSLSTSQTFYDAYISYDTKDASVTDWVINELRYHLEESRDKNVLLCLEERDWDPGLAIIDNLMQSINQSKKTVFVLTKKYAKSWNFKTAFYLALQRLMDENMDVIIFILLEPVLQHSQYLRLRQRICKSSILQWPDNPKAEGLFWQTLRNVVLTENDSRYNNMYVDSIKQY
Hi! Could you tag entries with IC50 below 10 nM as True, and those at or above as False? Much appreciated.

molecule	qualitativeLabel
Cc1cc(-c2[nH]c3ccc(OC4CCN(C(=O)CN(C)C)CC4)cc3c2C(C)C)cc(C)n1	False
COc1ccc(-c2[nH]c3ccc(OCC(=O)NC[C@@H](F)C(C)(C)O)cc3c2C(C)C)cc1OC	False
CCc1c(-c2ccnc(C)c2)[nH]c2ccc(OCC3CCNCC3)cc12	True
COc1ccc(-c2[nH]c3ccc(OCC(=O)N4CCNCC4)cc3c2C(C)C)cc1OC	False
Cc1cc(-c2[nH]c3ccc(OCC4CCN(C(C)C)CC4)cc3c2C(C)C)cn2ncnc12	True
Cc1cc(-c2[nH]c3ccc(OCC4CCN(C(C)C)CC4)cc3c2C(C)C)ccn1	True
Cc1cc(-c2[nH]c3ccc(OCC(=O)N4CC5CN(C)CC5C4)cc3c2C(C)C)ccn1 (centres unmarked)	False
CCc1c(-c2ccc(OC)c(OC)c2)[nH]c2ccc(OC3CCN(C4CCN(CC(C)C)CC4)CC3)cc12	True
Cc1cc(-c2[nH]c3ccc(OC4CCN(C5CCOCC5)CC4)cc3c2C(C)C)cn(C)c1=O	True
Cc1cc(-c2[nH]c3ccc(OCC(=O)N4CCC(CN)CC4)cc3c2C(C)C)ccn1	False
Cc1cc(-c2[nH]c3ccc(OCC4CN(C(=O)CN(C)C)C4)cc3c2C(C)C)cn2ncnc12	True

###

biological target: UniProtKB Q9NYK1; experiment: TLR7 inhibition reporter assay (HEK-Blue SEAP); conditions: HEK-Blue cells overexpressing human TLR7, stimulated with gardiquimod 7.5 μM, 22 hour incubation
IC50 by entry:

compound	resultUnit	IC50
Cc1cc(-c2[nH]c3ccc(OC4CCNCC4)cc3c2C(C)C)cn2ncnc12	nM	0.6
Cc1cc(-c2[nH]c3ccc(OC4CCN(C(=O)CN(C)C)CC4)cc3c2C(C)C)cn2ncnc12	nM	2.3
Cc1c(-c2[nH]c3ccc(OCC4CCN(CC(=O)N(C)C)CC4)cc3c2C(C)C)cn2cnnc2c1C	nM	7.6
Cc1cc(-c2[nH]c3ccc(OCC4CCN(CCS(C)(=O)=O)CC4)cc3c2C(C)C)cn2ncnc12	nM	0.7
Cc1c(-c2[nH]c3ccc(OCC4CN(C)C4)cc3c2C(C)C)cn2cnnc2c1C	nM	493
Cc1cc(-c2[nH]c3ccc(OC4CCN(C(C)C)CC4)cc3c2C(C)C)ccn1	nM	70.7
Cc1cc(-c2[nH]c3ccc(OC4CCN(CC(C)C)CC4)cc3c2C(C)C)cn(C)c1=O	nM	2.8
COc1ccc(-c2[nH]c3ccc(OCC(=O)N4CCC[C@H](N)C4)cc3c2C(C)C)cc1OC	nM	95.5
Cc1cc(-c2[nH]c3ccc(OC4CCC(OC5CCNCC5)CC4)cc3c2C(C)C)ccn1 (stereo not drawn) [Example 184]	nM	51.9
Cc1cc(-c2[nH]c3ccc(OCC(=O)N(C)C4CCNCC4)cc3c2C(C)C)ccn1	nM	142
Cc1cc(-c2[nH]c3ccc(OCC4CCN(C5CCOCC5)CC4)cc3c2C(C)C)cn2ncnc12	nM	0.6
Cc1cc(-c2[nH]c3ccc(OCCN(C)C)cc3c2C(C)C)ccn1	nM	69
Cc1cc(-c2[nH]c3ccc(OC4CCN(CC(C)O)CC4)cc3c2C(C)C)cc(C)n1 (stereo not drawn)	nM	5.6
COc1ccc(-c2[nH]c3ccc(OCC(=O)NCCC(C)(C)O)cc3c2C(C)C)cc1OC	nM	461
COc1ccc(-c2[nH]c3ccc(OCC(=O)NC4CC[C@H]5CC[C@@H]4N5C)cc3c2C(C)C)cc1OC (stereo partly drawn)	nM	227
Cc1cc(-c2[nH]c3ccc(OCC(=O)NCCC4CCCNC4)cc3c2C(C)C)ccn1 (stereo not drawn)	nM	771
CCc1c(-c2ccnc(C)c2)[nH]c2ccc(OC3CCNCC3)cc12	nM	146
Cc1c(-c2[nH]c3ccc(OCC4CCN(C(=O)CN(C)C)CC4)cc3c2C(C)C)cn(C)c(=O)c1C	nM	12.3
Cc1cc(-c2[nH]c3ccc(OC4CCN(C(=O)CN(C)C)CC4)cc3c2C(C)C)cc(C)n1	nM	0.5
Cc1cc(-c2[nH]c3ccc(OC4CCN(CCCC(F)(F)F)CC4)cc3c2C(C)C)cn(C)c1=O	nM	10.9
Cc1cc(-c2[nH]c3ccc(OC4CCN(C)CC4)cc3c2C(C)C)cc(C)n1	nM	1.3
CCCN1CCC(Oc2ccc3[nH]c(-c4cn5cnnc5c(C)c4C)c(C(C)C)c3c2)CC1	nM	2.1
Cc1cc(-c2[nH]c3ccc(OCC4CCCN(C)C4)cc3c2C(C)C)cc(C)n1 (stereo not drawn)	nM	2.3
COc1ccc(-c2[nH]c3ccc(OCC(=O)N4CCC(OC5CCNCC5)CC4)cc3c2C(C)C)cc1OC	nM	281
Cc1cc(-c2[nH]c3ccc(OC4CCN(CCCO)CC4)cc3c2C(C)C)cc(C)n1	nM	3.8
COc1ccc(-c2[nH]c3ccc(OCC(=O)N4C[C@H]5C[C@@H]4CN5)cc3c2C(C)C)cc1OC	nM	58.6
Cc1c(-c2[nH]c3ccc(OCC4CCN(C5COC5)CC4)cc3c2C(C)C)cn(C)c(=O)c1C	nM	19.3

###

pIC50 by entry:
molecular target: human TLR7 (Homo sapiens, UniProt Q9NYK1); assay: TLR7 inhibition reporter assay (HEK-Blue SEAP); conditions: HEK-Blue cells overexpressing human TLR7, stimulated with gardiquimod 7.5 μM, 22 hour incubation
Sequence (Q9NYK1 27-1049): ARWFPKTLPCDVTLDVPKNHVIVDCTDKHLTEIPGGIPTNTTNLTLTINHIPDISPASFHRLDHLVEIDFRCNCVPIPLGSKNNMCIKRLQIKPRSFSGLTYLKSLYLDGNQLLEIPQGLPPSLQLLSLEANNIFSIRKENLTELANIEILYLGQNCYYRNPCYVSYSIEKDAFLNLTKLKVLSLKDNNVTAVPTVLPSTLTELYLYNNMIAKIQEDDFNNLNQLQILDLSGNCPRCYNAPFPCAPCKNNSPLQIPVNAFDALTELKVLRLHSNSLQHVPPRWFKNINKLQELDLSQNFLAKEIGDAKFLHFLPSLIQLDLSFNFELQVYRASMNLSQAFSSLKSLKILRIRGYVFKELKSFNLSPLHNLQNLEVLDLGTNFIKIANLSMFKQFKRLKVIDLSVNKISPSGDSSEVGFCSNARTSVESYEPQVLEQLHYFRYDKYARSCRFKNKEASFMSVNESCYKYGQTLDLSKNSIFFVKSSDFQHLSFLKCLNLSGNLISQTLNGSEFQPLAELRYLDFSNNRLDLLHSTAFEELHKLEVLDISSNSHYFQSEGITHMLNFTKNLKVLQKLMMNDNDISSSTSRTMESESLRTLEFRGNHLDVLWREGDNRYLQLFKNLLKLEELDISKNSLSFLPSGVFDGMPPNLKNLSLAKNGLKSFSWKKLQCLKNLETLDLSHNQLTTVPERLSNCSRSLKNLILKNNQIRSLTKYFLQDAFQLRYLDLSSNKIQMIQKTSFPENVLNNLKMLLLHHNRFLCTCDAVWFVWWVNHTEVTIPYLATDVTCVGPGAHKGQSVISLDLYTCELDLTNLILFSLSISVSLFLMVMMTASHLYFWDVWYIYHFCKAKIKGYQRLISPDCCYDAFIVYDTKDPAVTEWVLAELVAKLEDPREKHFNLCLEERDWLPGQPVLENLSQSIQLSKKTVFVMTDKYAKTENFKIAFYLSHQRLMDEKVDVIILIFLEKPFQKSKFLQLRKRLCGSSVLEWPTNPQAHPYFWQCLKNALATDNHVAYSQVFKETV
pIC50: −log10 of the molar value.
measuredQuantity: pIC50

compound	targetOrSystem	measuredQuantity	readoutValue
Cc1cc(-c2[nH]c3ccc(OCCN4CCC(F)(F)CC4)cc3c2C(C)C)cn2ncnc12 [Example 3]	human TLR7 (Homo sapiens, UniProt Q9NYK1)	pIC50	7.58
COc1ccc(-c2[nH]c3ccc(OCCC4CCNCC4)cc3c2C(C)C)cc1OC [Example 158]	human TLR7 (Homo sapiens, UniProt Q9NYK1)	pIC50	7.31
Cc1cc(-c2[nH]c3ccc(OCC(=O)NCCC(C)(C)O)cc3c2C(C)C)ccn1 [Example 155]	human TLR7 (Homo sapiens, UniProt Q9NYK1)	pIC50	6.11
Cc1cc(-c2[nH]c3ccc(OCC4CCN(CC(C)(C)O)CC4)cc3c2C(C)C)cc(C)n1 [Example 24]	human TLR7 (Homo sapiens, UniProt Q9NYK1)	pIC50	8.37
Cc1cc(-c2[nH]c3ccc(OCC4CCCNC4)cc3c2C(C)C)ccn1 (stereo not drawn) [Example 180]	human TLR7 (Homo sapiens, UniProt Q9NYK1)	pIC50	7.42
Cc1cc(-c2[nH]c3ccc(OCC4CN(C(C)C)C4)cc3c2C(C)C)cn2ncnc12 [Example 58]	human TLR7 (Homo sapiens, UniProt Q9NYK1)	pIC50	8.85
CCCN1CCC(Oc2ccc3[nH]c(-c4cc(OC)c5ncnn5c4)c(C(C)C)c3c2)CC1 [Example 67]	human TLR7 (Homo sapiens, UniProt Q9NYK1)	pIC50	9.70
COc1ccc(-c2[nH]c3ccc(O[C@H]4CCNC4)cc3c2C(C)C)cc1OC [Example 170]	human TLR7 (Homo sapiens, UniProt Q9NYK1)	pIC50	7.08
CCc1c(-c2ccnc(C)c2)[nH]c2ccc(OCCN3CCCC3)cc12 [Example 192]	human TLR7 (Homo sapiens, UniProt Q9NYK1)	pIC50	5.99
